test_system: C-CBL (residues 46-435) (Homo sapiens)
Construct: Purified CBL-B (residues 36-427) and C-CBL (residues 46-435) proteins from baculovirus-infected insect cells; made in house; host or cells: baculovirus-infected insect cells
assay_comment: Ligand Displacement Assay (LDA), HTRF competitive binding against BODIPY-labeled fluorescent tracer, C-CBL
experimental_setup: geometric mean of the number of tests, read-out: C-CBL Ki (nM) GMean
Output: class label from Ki. Mapping: low-valued (below 30 nM), mid-valued (30 nM to below 100 nM), high-valued (100 nM or more)

Completed entries (count: 3):
1. CC(NC(=O)[C@H](C)O)c1nc(C(F)(F)F)cc2c(-c3cccc([C@H](c4nncn4C)C4CCC4)c3)n[nH]c12 (single isomer, unassigned) [Example I4] :: low-valued
2. C[C@@H](CO)N[C@H](C)c1nc(C(F)(F)F)cc2c(-c3cccc([C@H](c4nncn4C)C4CCC4)c3)n[nH]c12 (single isomer, unassigned) [Example D63] :: mid-valued
3. CN[C@H](C)c1nc(C(F)(F)F)cc2c(-c3cccc(C4(Cc5nncn5C)COC4)c3)n[nH]c12 (single isomer, unassigned) [Example D38] :: high-valued

Record Cn1cnnc1[C@@H](c1cccc(-c2n[nH]c3c(CN4CCC(F)(F)C4)nc(C(F)(F)F)cc23)c1)C1CCC1 [Example C114] — which class? high-valued

Now consider Cn1cnnc1[C@@H](c1cccc(-c2n[nH]c3c(CN[C@@H]4CCC(F)(F)C4)nc(C(F)(F)F)cc23)c1)C1CCC1 [Example C5] . high-valued

Now consider CC(NC1CCCC1)c1nc(C(F)(F)F)cc2c(-c3cccc([C@H](c4nncn4C)C4CCC4)c3)n[nH]c12 (stereo partly drawn) [Example C14] . low-valued

Source: patent US20260125375A1
